conditions: in water, 298.2 K
observationType: solubility (mole fraction)

# smilesStructure, experimentalValue
measured = [
    ("Cn1c([N+](=O)[O-])cnc1N1CCN(S(C)(=O)=O)C1=O", "3.21e-06"),
]

====

conditions: in glycerin, 308.2 K

# smilesStructure, solubility (mole fraction)
rows = [
    ("Cn1c([N+](=O)[O-])cnc1N1CCN(S(C)(=O)=O)C1=O", 0.00114),
]

====

details: in methanol, 298.2 K
observationType: solubility (mole fraction)

# smilesStructure, experimentalValue
records = [
    ("Cn1c([N+](=O)[O-])cnc1N1CCN(S(C)(=O)=O)C1=O", 0.000539),
]

====

conditions: in water, 303.2 K
observationType: solubility (mole fraction)

# smilesStructure, observationType, experimentalValue
data = [
    ("Cn1c([N+](=O)[O-])cnc1N1CCN(S(C)(=O)=O)C1=O", "solubility (mole fraction)", "3.66e-06"),
]

====

settings: in ethylene glycol, 313.2 K

# smilesStructure, solubility (mole fraction)
measured = [
    ("Cn1c([N+](=O)[O-])cnc1N1CCN(S(C)(=O)=O)C1=O", 0.00558),
]

====

settings: in ethanol, 303.2 K
observationType: solubility (mole fraction)

# smilesStructure, observationType, experimentalValue
records = [
    ("Cn1c([N+](=O)[O-])cnc1N1CCN(S(C)(=O)=O)C1=O", "solubility (mole fraction)", 0.000582),
]

====

settings: in PEG-600, 298.2 K

# smilesStructure, solubility (mole fraction)
measured = [
    ("Cn1c([N+](=O)[O-])cnc1N1CCN(S(C)(=O)=O)C1=O", 0.0218),
]

====

conditions: in DMAc, 303.2 K
observationType: solubility (mole fraction)

# smilesStructure, experimentalValue
measured = [
    ("Cn1c([N+](=O)[O-])cnc1N1CCN(S(C)(=O)=O)C1=O", 0.0617),
]

====

settings: in ethanol, 308.2 K

# smilesStructure, solubility (mole fraction)
data = [
    ("Cn1c([N+](=O)[O-])cnc1N1CCN(S(C)(=O)=O)C1=O", 0.000726),
]

====

conditions: in propylene glycol, 313.2 K
observationType: solubility (mole fraction)

# smilesStructure, observationType, experimentalValue
rows = [
    ("Cn1c([N+](=O)[O-])cnc1N1CCN(S(C)(=O)=O)C1=O", "solubility (mole fraction)", 0.00836),
]

====

conditions: in water, 308.2 K

# smilesStructure, solubility (mole fraction)
measured = [
    ("Cn1c([N+](=O)[O-])cnc1N1CCN(S(C)(=O)=O)C1=O", "4.24e-06"),
]

====

conditions: in PEG-400, 313.2 K

# smilesStructure, solubility (mole fraction)
data = [
    ("Cn1c([N+](=O)[O-])cnc1N1CCN(S(C)(=O)=O)C1=O", 0.0462),
]

====

settings: in DMSO, 313.2 K

# smilesStructure, solubility (mole fraction)
rows = [
    ("Cn1c([N+](=O)[O-])cnc1N1CCN(S(C)(=O)=O)C1=O", 0.114),
]

====

conditions: in glycerin, 313.2 K

# smilesStructure, solubility (mole fraction)
rows = [
    ("Cn1c([N+](=O)[O-])cnc1N1CCN(S(C)(=O)=O)C1=O", 0.00128),
]

====

conditions: in ethanol, 313.2 K
observationType: solubility (mole fraction)

# smilesStructure, experimentalValue
measured = [
    ("Cn1c([N+](=O)[O-])cnc1N1CCN(S(C)(=O)=O)C1=O", 0.000851),
]

// data source = BigSolDB 2.1
